This collection of values is drawn from PubChem BioAssay (NCI).

Tested on: HOP-92 NSCLC
Test: NCI-60 one-dose screen, 48 h
Conditions: 10 µM
About 83,000 compounds went through this panel and 20% of them were active in at least one assay; those are over-represented in the sample as a whole. Calls of active or inactive are those of the source. How the source made its calls: active means growth percent below 10; inactive means the rest.
Give your call using only these classes: TRUE = active, FALSE = inactive

[
  {
    "compound": "C=C1CCC2C3(C)COC(c4cccc(F)c4)OC3CCC2(C)C1CC(O)C1=CCOC1=O (centres undefined)",
    "label": "FALSE"
  },
  {
    "compound": "Cc1cccc2cc(-c3cc(-c4ccccc4)nc(=S)[nH]3)c(Cl)nc12",
    "label": "FALSE"
  },
  {
    "compound": "O=c1[nH][nH]c(Nc2ccccc2)c1N=Nc1ccc(F)cc1",
    "label": "FALSE"
  },
  {
    "compound": "COc1ccc([C@H]2C(C(=O)c3ccc(Cl)cc3)C3(N[C@@H]2c2ccccc2)C(=O)Nc2ccc(Br)cc23)cc1 (some centres undefined)",
    "label": "TRUE"
  },
  {
    "compound": "COc1ccc(/C(CSc2nnc(-c3c[nH]c4ccccc34)n2-c2ccccc2)=N/O)cc1",
    "label": "FALSE"
  }
]

stdin: Field: outcome | Entry: `Cc1ccc(S(=O)(=O)c2nc(-c3ccccc3)oc2S(=O)(=O)CC(=O)N2CCCC2)cc1`
stdout: TRUE

stdin: Hi team, can someone confirm the assay call for `Cc1ccc2nc(-c3ccc(-c4nnc(SCC(=O)Nc5ccc(Br)cc5)o4)cc3)[nH]c2c1` ?
stdout: FALSE

stdin: // outcome(item) with item = `COc1cc(OC(F)(F)F)ccc1C(=O)Nc1sc2c(c1C#N)CCC(=O)C2`
stdout: FALSE

stdin: Record request — test call for `CC(=O)c1ccc(Nc2nc(SC(C)C)nc(-c3ccccc3)c2C#N)cc1`
stdout: TRUE

stdin: What classification did `Cc1ccc(NCC(=O)Nn2c(COc3ccccc3)nc3ccccc3c2=O)cc1` end up with in this test?
stdout: FALSE

stdin: Tell me the recorded outcome of this test for `O=C(CSc1nnc(-c2c[nH]c3ccccc23)n1-c1ccccc1)c1ccc(Br)cc1` .
stdout: FALSE

stdin: Per the assay record, what outcome was assigned to `Cc1ccc(NC(=O)c2ccc(-n3c(=O)[nH]c4ccccc4c3=O)cc2)cc1` ?
stdout: FALSE

stdin: # outcome recorded in this test, key = `COc1cccc2nc(Nc3cccc(NC(=O)c4ccc(CN5CCCN(C)CC5)c(C(F)(F)F)c4)c3)ccc12`
stdout: TRUE

stdin: Query: recorded result category for CC(=O)OC[C@@]1(C)C2CC[C@]3(C)C(CC=C4C5CC(C)(C)CC[C@]5(C(=O)Nc5ccccc5)CC[C@]43C)[C@@]2(C)C[C@@H](OC(C)=O)[C@@H]1OC(C)=O (some centres undefined) in this test
stdout: FALSE

stdin: Called result for `COc1ccc2[nH]c(=O)c(CSc3ccc(Nc4nccc(-c5ccc(Cl)cc5)n4)cc3)cc2c1`
stdout: FALSE

stdin: Query: recorded result category for `C=C[C@@]12CN3CC[C@]1(O)[C@@](C(=O)OC)(CO2)c1[nH]c2ccccc2c1C3` in this test
stdout: FALSE

stdin: What call does the record list for `COc1cc2c3c(n(CCCNCCO)c(=O)c2cc1OC)-c1nc2c(cc1C3=O)OCO2` ?
stdout: TRUE

stdin: Hey, what did the test say about OCc1[nH]nc2cc(Nc3ncc4ccc(Br)c(OC5CCC(O)CC5)c4n3)ccc12 (centres undefined) ?
stdout: FALSE

stdin: So what was the verdict on `CCCCSc1nc(Nc2ccc(/C(C)=N/NC(N)=S)cc2)c(C#N)c(-c2ccc(OC)cc2)n1` in this test?
stdout: TRUE
